Reference for the values: patent US4663325A

Please respond with reported Increase (%) in vertebral blood flow (mean ± standard error) for every item in the list.
Tested on: vertebral blood flow
ASSAY SUMMARY: Activity of increasing cerebral blood flow (vertebral blood flow as index, anesthetized dogs, intravenous)
Type: in vivo
RUN PARAMETERS: 10 minutes after administration; 1 mg/kg i.v. (right femoral vein); anesthetized mongrel dogs
Return type: number; implicit unit %.

Exercise: I'd like to know its Increase (%) in vertebral blood flow (mean ± standard error). The molecule in question is COc1ccc(CN2CCN(C(c3ccccc3)c3ccc(F)cc3)CC2)c(OC)c1OC.O=C(O)/C=C/C(=O)O (stereo not shown) [C]
Solution: 27.7

Exercise: And for Cl.Cl.c1ccc(C(c2ccccc2)N2CCN(Cc3ccc4c(c3)OCO4)CC2)cc1 [compound 2, reference compound] ?
Solution: 2.5

Exercise: Param item: COc1ccc(CN2CCN(C(c3ccc(F)cc3)c3ccc(F)cc3)CC2)c(OC)c1OC.Cl.Cl [Compound D]
Solution: 87.0

Exercise: Param item: COc1ccc(CN2CCN(C(c3ccc(F)cc3)c3ccc(F)cc3)CC2)c(OC)c1.Cl.Cl.O.O [B]
Solution: 47.5

Exercise: Please give the result for C(=Cc1ccccc1)CN1CCN(C(c2ccccc2)c2ccccc2)CC1 [Cinnarizine, 1-Cinnamyl-4-benzhydrylpiperazine, reference compound] too.
Solution: 2.9

Exercise: Now consider COc1ccc(CN2CCN(C(c3ccccc3)c3ccccc3)CC2)c(OC)c1OC.Cl.Cl.O [compound 1, reference compound] .
Solution: 10.0

Exercise: And COc1ccc(CN2CCN(C(c3ccccc3)c3ccc(F)cc3)CC2)c(OC)c1.O=C(O)/C=C/C(=O)O (stereo not shown) [A] ?
Solution: 16.2

###

For each record, write down the corresponding LD50 at 168 h.
ASSAY SUMMARY: Acute toxicity (oral, mice)
RUN PARAMETERS: mouse, in vivo, fasted male ddY mice, deaths during seven days, Weil method
Note: a bare number is incomplete; add the unit.

Exercise: Need LD50 at 168 h of `COc1ccc(CN2CCN(C(c3ccc(F)cc3)c3ccc(F)cc3)CC2)c(OC)c1OC.Cl.Cl` , thanks.
Solution: 300 mg/kg

Exercise: Repeat for the following compound: COc1ccc(CN2CCN(C(c3ccccc3)c3ccc(F)cc3)CC2)c(OC)c1.O=C(O)/C=C/C(=O)O (stereo not shown)
Solution: 300 mg/kg

Exercise: Ok, now COc1ccc(CN2CCN(C(c3ccccc3)c3ccc(F)cc3)CC2)c(OC)c1OC.O=C(O)/C=C/C(=O)O (stereo not shown)
Solution: 650 mg/kg

Exercise: `COc1ccc(CN2CCN(C(c3ccc(F)cc3)c3ccc(F)cc3)CC2)c(OC)c1.Cl.Cl.O.O` ?
Solution: 225 mg/kg

###

Would you mind telling me the reported Increase (%) in vertebral blood flow (mean ± standard error) of each entry?
Test system: vertebral blood flow
ASSAY SUMMARY: Activity of increasing cerebral blood flow (vertebral blood flow as index, anesthetized dogs, intravenous)
Type: in vivo
RUN PARAMETERS: 20 minutes after administration; 1 mg/kg i.v. (right femoral vein); anesthetized mongrel dogs
Provide only the numeric value, understood in %.

Exercise: Need Increase (%) in vertebral blood flow (mean ± standard error) of COc1ccc(CN2CCN(C(c3ccccc3)c3ccccc3)CC2)c(OC)c1OC.Cl.Cl.O [compound 1, reference compound] , thanks.
Solution: 5.0

Exercise: Then this compound: COc1ccc(CN2CCN(C(c3ccc(F)cc3)c3ccc(F)cc3)CC2)c(OC)c1.Cl.Cl.O.O [B]
Solution: 27.1

Exercise: Here is the next compound: Cl.Cl.c1ccc(C(c2ccccc2)N2CCN(Cc3ccc4c(c3)OCO4)CC2)cc1 [compound 2, reference compound]
Solution: 0.4
